Entry source: patent US20120269817A1

- experimentalTarget: T1, human tissue factor pathway inhibitor (TFPI) (human, UniProt P10646 29-304, limits assumed); also: test concentration or dose not given here
- T1 sequence (looked up): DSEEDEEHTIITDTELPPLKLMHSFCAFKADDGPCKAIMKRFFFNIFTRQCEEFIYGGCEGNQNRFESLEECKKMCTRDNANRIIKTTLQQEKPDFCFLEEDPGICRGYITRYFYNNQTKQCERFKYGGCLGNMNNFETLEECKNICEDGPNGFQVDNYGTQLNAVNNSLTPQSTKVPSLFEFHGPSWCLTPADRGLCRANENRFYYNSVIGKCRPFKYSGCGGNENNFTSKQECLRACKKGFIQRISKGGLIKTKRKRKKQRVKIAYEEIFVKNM
- measurementNotes: cell-based or functional assay
readoutLabel: dPT in hemoA plasma (s)

binder | quantitativeReadout
TP-3C2 Fab (Fab, V domains shown, Human Fab from HuCal Gold, expressed in E. coli TG1) VH: QVQLQQSGPGLVKPSQTLSLTCAISGDSVSSSSAAWSWIRQSPGRGLEWLGMIYYRSKWYNHYAVSVKSRITINPDTSKNQFSLQLNSVTPEDTAVYYCARGGSGVMDVWGQGTLVTVSS VL: DIQMTQSPSSLSASVGDRVTITCRASQSITNYLNWYQQKPGKAPKLLIYDVSNLQSGVPSRFSGSGSGTDFTLTISSLQPEDFAVYYCQQYSGYPLTFGQGTKVEIKR | 68.9
